Target: 5-hydroxytryptamine receptor 2A (Homo sapiens, UniProt P28223); further: assay procedure not described here
Sequence (P28223 whole entry): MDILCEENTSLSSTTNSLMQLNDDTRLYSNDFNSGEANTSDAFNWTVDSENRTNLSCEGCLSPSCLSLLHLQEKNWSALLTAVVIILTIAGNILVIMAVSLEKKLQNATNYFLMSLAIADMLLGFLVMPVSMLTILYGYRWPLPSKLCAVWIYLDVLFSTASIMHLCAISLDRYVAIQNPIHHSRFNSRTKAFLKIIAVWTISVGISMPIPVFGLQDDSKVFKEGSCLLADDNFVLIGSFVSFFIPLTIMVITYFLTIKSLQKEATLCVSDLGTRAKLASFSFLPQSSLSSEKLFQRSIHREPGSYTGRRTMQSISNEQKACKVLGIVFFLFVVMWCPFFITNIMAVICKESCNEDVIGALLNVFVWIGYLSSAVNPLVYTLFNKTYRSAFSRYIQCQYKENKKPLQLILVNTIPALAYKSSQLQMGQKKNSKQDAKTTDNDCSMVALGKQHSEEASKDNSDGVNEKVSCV
Format: functional, cell-based
We begin with a simple list: items and their reported AC50.

| Compound | AC50 |
| --- | --- |
| C[N+](C)(C)CCOP(=O)(O)OP(=O)([O-])OC[C@H]1O[C@@H](n2ccc(N)nc2=O)[C@H](O)[C@@H]1O | > 30 µM |
| CC(C)(O/N=C(\C(=O)N[C@@H]1C(=O)N2C(C(=O)[O-])=C(C[n+]3ccccc3)CS[C@H]12)c1csc(N)n1)C(=O)O | > 30 µM |
| CC1=C(/C=C/C(C)=C/C=C/C(C)=C/CO)C(C)(C)CCC1 | > 10 µM |
| C/C=C(/C(=C/C)c1ccc(O)cc1)c1ccc(O)cc1 | > 10 µM |
| O=C1c2cccc3c2[C@H](CCC3)CN1[C@@H]1CN2CCC1CC2 | > 30 µM |
| CCN1CCCC1CNC(=O)c1cc(S(=O)(=O)CC)ccc1OC (configuration not stated) [SULTOPRIDE] | > 30 µM |
| COC(=O)C1=C(C)NC(C)=C(C(=O)OCCN2CCN(C(c3ccccc3)c3ccccc3)CC2)C1c1cccc([N+](=O)[O-])c1 (configuration not stated) | > 30 µM |
